System: Human papillomavirus type 1a E7 protein (residues 1-88)
Assay: HPV1a E7 small-molecule binders, primary screen, biochemical, small-molecule microarray, residues 1-88, 635 nm (AID 1129)
Conditions: small-molecule microarray binding, fluorescence 635 nm; higher = more signal
assay readout: composite z-score
Write no unit; give the number alone.

// below: answered compounds
• C=CCC(OC(C)=O)[C@@H]1[C@@H](N(Cc2ccc(-c3ccccc3)cc2)C(=O)Cc2ccc(F)cc2)c2cc(OCCCO)ccc2N1C(=O)c1ccc(-c2ccccc2)cc1 (stereo partly drawn) = -1.03
• CC(C)c1ccc(NN2C(C(O)C(c3ccccc3)c3ccccc3)C=CC3C(=O)N(c4ccccc4)C(=O)C32)cc1 (stereo not drawn) = 1.2
• COc1ccc([Si](C)(C)[C@H]2[C@H](CC(=O)N3CCC[C@H]3CO)O[C@@]3(C(=O)N(Cc4cccc(N5C(=O)c6cccc7cccc5c67)c4)c4ccccc43)[C@@H]2C)cc1 = 0.614
• COc1cc(OC)c(C(O)C2C=CC3C(=O)NC(=O)C3N2Nc2ccc(Cl)cc2Cl)cc1Br (stereo not drawn) = 1.22
• COc1ccc(NN2C(C(O)c3ccc([N+](=O)[O-])cc3)C=CC3C(=O)N(C4CCCCC4)C(=O)C32)cc1 (stereo not drawn) = 0.918

Req: Which composite z-score is listed for CCC(CC)C(O)C1C=CC2C(=O)N(C)C(=O)C2N1Nc1ccccc1 (stereo not drawn) ?
Resp: 1.08

Req: Given the entry C=CCN1C(=O)[C@]2(O[C@H](CCO)[C@@H]([Si](C)(C)c3ccc(OC)cc3)[C@@H]2C)c2cc(N3CCCCC3=O)ccc21 , report its measured composite z-score.
Resp: 1.2

Req: Bench note: what composite z-score did CN(C)CCCC[C@@H]1NC(=O)[C@H]2C[C@@H](C(=O)NCCCCCNC(=O)CS)[C@@H](c3cccc(OCCO)c3)N2C1=O show?
Resp: 0.866

Req: Fill in the blank: the reported composite z-score of CC(C)[C@@H](CO)NC(=O)[C@H]1[C@@H](c2ccccc2)N(c2ccccc2)O[C@@H]1C is ____.
Resp: -0.253

Req: Give its composite z-score value. Item: COCCOC(=O)N1C(=O)[C@@]2(c3ccccc31)[C@H](c1ccc(O)cc1)N1[C@H](c3ccccc3)[C@H](c3ccccc3)OC(=O)[C@H]1[C@@H]2C(=O)NC[C@H](O)c1ccccc1
Resp: 1.2

Req: Request the reported composite z-score associated with COC(=O)[C@@]1(Cc2ccc(F)cc2)[C@H]2c3cc(C(=O)N4CCCC4)n(Cc4ccc(C)o4)c3C[C@H]2CN1C(=O)c1ccccc1
Resp: 1.07

Req: Can you look up the measured composite z-score of COC(=O)[C@@]1(Cc2ccc(F)cc2)[C@H]2c3cc(C(=O)N(C)C)n(CC4CC4)c3C[C@H]2CN1C(=O)c1ccccc1 for me?
Resp: 1.21

Req: Query: composite z-score; subject: C=CCOC(=O)[C@H]1[C@@H]2C(=O)O[C@@H](c3ccccc3)[C@@H](c3ccccc3)N2[C@@H](c2ccc(OCCOC(=O)[C@@H]3C[C@@H]4C(=O)N[C@@H](CCCC[N+](C)(C)C)C(=O)N4[C@@H]3c3ccc(O)cc3)cc2)[C@]12C(=O)Nc1ccccc12
Resp: 1.2

###

Test system: Wnt5a (protein binding on small-molecule microarray)
Assay: Wnt5a binders on small-molecule microarray, primary screen, biophysical, 635/667 nm fluorescence (AID 1142);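 note: fluorescence read at 667 nm with signal to noise per printed feature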
Details: 635 nm fluorescence, higher = more signal
Note to self: values exactly at 0.2 are satisfied. So composite z-score at or above 0.2 is satisfied, below is not satisfied.

Reference set, count: 3
* CCCCCCC#C[Si](O[C@H](c1ccccc1)c1cn([C@H](CO)Cc2ccccc2)nn1)(C(C)C)C(C)C | not satisfied
* CN(C)CCCCCCNC(=O)[C@@H]1C[C@@H]2C(=O)N[C@@H](CCCCN)C(=O)N2[C@@H]1c1cccc(OCCO)c1 | satisfied
* C=CCOC(=O)[C@@H]1[C@H]2C(=O)O[C@H](c3ccccc3)[C@H](c3ccccc3)N2[C@H](c2ccc(OCCOC(=O)[C@@H]3C[C@@H]4C(=O)N5CCC[C@H]5C(=O)N4[C@@H]3c3ccc(O)cc3)cc2)[C@@]12C(=O)Nc1ccc(I)cc12 | not satisfied

Req: Does the compound [N-]=[N+]=Nc1ccccc1C[C@]1(C(=O)NCC(O)CO)N=C(c2ccc(OCCCO)cc2)O[C@H]1c1ccccc1N=[N+]=[N-] (stereo partly specified) have recorded composite z-score that is 0.2 or more?
Resp: satisfied

Req: Quick check: does COc1ccc(C(O)C2C=CC3C(=O)N(c4ccccc4)C(=O)C3N2Nc2ccccc2F)cc1OCc1ccccc1 (stereo unspecified) have composite z-score greater than or equal to 0.2?
Resp: satisfied

Req: Determine whether this compound has composite z-score no lower than 0.2: CN(C)CCCNC(=O)[C@@]1(c2ccc([N+](=O)[O-])cc2)CC(=O)N(C2CCCCC2)[C@@H]1c1ccc(CO)cc1I
Resp: not satisfied
